Data origin, for the record: patent US20260008775A1

target: human emopamil binding protein and human 7-dehydrocholesterol reductase (hEBP-DHCR7) (Homo sapiens (Human), UniProt Q15125)
Sequence (Q15125 whole entry): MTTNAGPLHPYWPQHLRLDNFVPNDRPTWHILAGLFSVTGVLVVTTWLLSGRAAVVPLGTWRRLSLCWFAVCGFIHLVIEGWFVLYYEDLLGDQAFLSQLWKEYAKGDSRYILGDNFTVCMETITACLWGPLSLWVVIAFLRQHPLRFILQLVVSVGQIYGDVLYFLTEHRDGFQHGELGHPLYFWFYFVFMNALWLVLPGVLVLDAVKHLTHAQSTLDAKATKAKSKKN
measured_endpoint: log10 Ki (log10 of the value in nM)
Each number you see is log10 of Ki, and the unit inside the log is nM.

Reference set, count: 2
compound | numeric_value
CC(C)n1nc(-c2cnc(C(F)(F)F)nc2)nc1[C@H]1CC[C@@H](N2CCO[C@H](C)C2)C1 | 2.51
CC(C)n1nc(-c2cnc(F)c(C(F)(F)F)c2)nc1[C@@H]1CC[C@H](N2CCOCC2)C1 (single isomer, unassigned) | 1.71

Problem: Please give the measured log10 Ki for this compound: CC(C)n1nc(-c2cncc(C(F)(F)F)c2)nc1[C@H]1[C@@H]2C[C@@H](N3CCOC[C@H]3C)C[C@@H]21
Solution: 2.77

Problem: // query: CC(C)n1nc(-c2cccc(OC(F)F)c2)nc1[C@H]1[C@@H]2C[C@@H](N3CCCOCC3)C[C@@H]21
Solution: 1.57
